- PROTOCOL_DESCRIPTION: Toxicity liver stage against HepG2, at 10uM
- Format: cell-based
- Set-up: test concentration 10 uM, cell line HepG2-A16-CD81EGFP
- CONDITIONS: human, HepG2-A16-CD81EGFP cells; read-out: INHIBITION
MEASURED_QUANTITY: cytotoxicity at 10 µM (%)
Express the result in % but write the number alone.

What does the data say about its cytotoxicity at 10 µM? Entry: NS(=O)(=O)c1ccc(NCc2ccco2)c2ncccc12
-153

Then Cc1ccsc1-c1nnc(SCC(=O)O)n1C(C)c1ccccc1 (stereo unspecified) ?
-4.65

Then this compound: Cc1csc(CN2CC[C@H]3C[C@H](c4noc(C)n4)O[C@@H]3C2)n1
-2.97

Next compound: c1ccc2cc(OCCN3CCOC(Cn4cncn4)C3)ccc2c1 (stereo unspecified)
4.6

Another: CCOc1cccc(C(=O)N2CCC(c3n[nH]c(C4CC4)n3)CC2)c1
-16.8

Next: Cn1cc(C2CCCN2C(=O)c2cnc(-c3cccs3)s2)cn1 (stereo unspecified)
4.99

Same thing, different compound: Cc1cc2c(cc1Cl)C=CC1(CCN(CC(=O)NC3CCCC3)CC1)O2
17

For CN(Cc1noc(C(C)(C)C)n1)Cc1ccccc1N1CCCC1 then?
-1.78

Repeat with Fc1cc(CNCc2ccc3c(c2)CCO3)ccc1N1CCOCC1
-7.24

Input Cc1ncc(CNC(=O)Nc2cc(C(F)(F)F)c[nH]c2=O)s1
-10.2

Continue with COc1ncc(-c2ccc(O)cc2)c(OC)n1
-2.42

Query Cn1ncc(NC(=O)Cn2cc(-c3ccc(F)cn3)cn2)n1 next
7.16

Quick one: CCCN1CCC(CC(=O)N2CCC(C(O)c3nccn3C)CC2)CC1 (stereo unspecified)
-1.13

Entry COCCc1noc(CNC2CCCN(c3cccnn3)C2)n1 (stereo unspecified) please
-13.7

// next record CCN(CC)CC1CCN(Cc2ccn(C)c(=O)c2)CC1
-14.7

// next record Cc1nccc(N[C@H]2CN(C(=O)CN3CCCC3=O)C[C@@H]2C(C)C)n1
-2.14

Another compound to check: CCOc1ncccc1NC(=O)N1CCOCC1C (stereo unspecified)
10.3

Same read-out for COCCN1CCOCC12CCN(c1cnccn1)CC2 ?
-102

Thanks! And O=C(c1cc(F)ccc1F)C1CCN(C(=O)c2ccc(=O)[nH]n2)CC1 ?
3.42

Try this compound too: NC(=O)N1CCCN(Cc2cc(F)cc(Br)c2)CC1
9.91

CCOC(=O)C1(CCOC)CCN(Cc2nccn2CC)CC1 , same question.
6.77

# repeat for O=C(c1ccc(-n2cccn2)c(F)c1)N1CCCN2CCCC2C1 (stereo unspecified)
-3.9

Follow-up item: Cc1nc(C)c2c(n1)CCN(Cc1ccco1)CC2
-0.141

Further, for c1ccc2sc(N3CCC4(CCCN4Cc4ncc[nH]4)CC3)nc2c1 ?
9.3

Now this one: Cc1noc(C)c1C(=O)NCc1ccnc(OCC(F)(F)F)c1
-0.421

Also CCN1CCC(CNC(=O)Nc2cnn(CC(N)=O)c2)C1 (stereo unspecified) ?
1.1

Could you do the same for Cn1cc(CN2CCC(F)(F)C3(CCN(c4cccc(F)c4)C3)C2)cn1 (stereo unspecified) , please?
45.9

Would you kindly repeat that for c1ccc(NC[C@@H]2CCC[C@@H]3CN(Cc4cccnc4)C[C@@H]32)nc1 ?
2.78

CC(c1ccc(F)cc1)N1CCN(Cc2ccc(C#N)cc2)CC1 (stereo unspecified) ?
-6.17

One more compound: O=C(CCc1c(F)cccc1F)NS(=O)(=O)c1ccc2c(c1)OCCO2
-4.71

Can you handle O=C(CNc1cc2c(cc1Cl)OCCCO2)NCc1ccc(F)cc1 next?
0.854

Try COC(=O)C1CCCCN1C(=O)c1ccccc1F (stereo unspecified) next.
8.96

Please do the same for COc1c(CNCc2ccccc2Cn2ccnc2)c(C)nn1C as well.
-9.2

Further, for Cc1ccc([C@H]2CN(C(=O)CC3CCC3)C[C@@H]2N)o1 ?
5.89

Consider next the compound Cc1ccc(OCC(=O)N2CCCC(n3nc(C)nc3C)C2)cc1 (stereo unspecified) in the same way.
-10.1

Follow-up entry: Cc1nc(C(=O)N2CCC(c3nccn3Cc3ccncc3)CC2)cs1
-2.85

Queued: O=S(=O)(NCc1ccccc1)Nc1cccc(Cn2cncn2)c1
5.91

Same again, this time with Nc1cc(-c2c[nH]nc2C2CCN(C(=O)C3CCCC3)C2)ccn1 (stereo unspecified)
7.49

Follow-up item: N#Cc1cccc(OC23CCCN(CC2)C3)c1 (stereo unspecified)
1.73

Try the compound CCOCCNC(=O)C(CCSC)NC(=O)c1ccc2ccccc2n1 (stereo unspecified)
-9.95

Entry to check: O=C(CCN1CCCC(CC2CC2)(C(=O)O)C1)NC1CCCC1 (stereo unspecified)
18.7

----------
- PROTOCOL_DESCRIPTION: Toxicity liver stage against HepG2, at 10uM
- Assay type: cell-based
- Design: test concentration 10 uM, cell line HepG2-A16-CD81EGFP
- CONDITIONS: human, HepG2-A16-CD81EGFP cells; read-out: INHIBITION
Exercise: for every item that follows, state its recorded cytotoxicity at 10 µM.

State the recorded cytotoxicity at 10 µM for this entry: CC(=O)c1cccc(OCCCC(=O)N(C)CCC(F)(F)F)c1
4.33%

Also, CNS(=O)(=O)c1ccc(CNC(=O)N(C)C(C)COC)cc1 (stereo unspecified) please.
-5.12%

And CCN(CC)Cc1cc(C(=O)N2CCC3(CCN(C)CC3)C2)c(C)o1 ?
4.92%

Request: Cc1nonc1CN(C)c1nc(-c2ccco2)nc2c1CCN(C)CC2
-0.274%

Now this one: CSc1ncc(C(=O)NCCn2nccc2C)cn1
2.86%

Consider next the compound Cc1nn(C)c(N2CCOCC2)c1CNCc1cscn1 in the same way.
-8.07%

Now give it for Cc1cccc(C)c1OC1CN(Cc2cnc(N3CCCC3)nc2)C1 too.
1.35%

Param item: Cc1ccccc1Oc1ncccc1CNC1CCC1
-1.27%

Next up: O=C(Cc1cc(F)cc(Cl)c1)N[C@@H]1CCNC[C@H]1O
-3.66%

Try the compound Cc1nnc(SCC(=O)N2C[C@@H]3CC[C@H]2CN(c2ncccn2)C3)[nH]1
2.24%

// query: CN(Cc1ccccc1F)C(=O)COC(=O)c1cc(Cl)c[nH]1
12.4%

Similarly, Cc1noc(C)c1C(=O)NCC(c1ccsc1)N(C)C (stereo unspecified) ?
-14.2%

Entry to check: Cc1cc(C)n(CCCNc2ncnc3c2NC(=O)CN3)n1
8.71%

What would you report for CCNC(=O)[C@H]1CN(Cc2ccccc2)C[C@@H]1C(=O)c1ccccc1 ?
3.08%

Could you do the same for CCCC(NC(=O)c1cc(C)ccc1O)c1nnn[nH]1 (stereo unspecified) , please?
-3.26%

And COCCCN1Cc2cccc(NC(=O)c3ccccc3Cl)c2C1 ?
-4.34%

Thanks! And CC(C)c1nnc2n1CC(CNCc1ccsc1)CC2 (stereo unspecified) ?
-1.61%

Please do the same for Cc1noc(C2CCC3(CCN(C(=O)c4sccc4C)CC3)O2)n1 (stereo unspecified) as well.
8.94%

Repeat with Cc1ccc(NC(=O)N2CCC3(CCC(C(=O)N(C)C)O3)CC2)cc1 (stereo unspecified)
-99.2%

Can you check CCCn1cc(C(=O)NC(C)c2c(C)nn(CC)c2C)c(C)n1 (stereo unspecified) next?
5.31%

Next up: Cc1ccccc1CN1CCCN(S(=O)(=O)N(C)C2CCCCC2)CC1
11.5%

Also CC1c2ncc(CN3CCN(C)CC3)n2CCN1Cc1cnn(C)c1 (stereo unspecified) , if possible.
7.77%

Further, for O=C(O)c1ccc2c(CN3CCCC3)c[nH]c2c1 ?
-2.09%

Item: CC(C)CN1CCC2(C=C(C(=O)N(C)C)c3ccccc32)CC1
-97.4%

Now consider CCn1nc(C)c(CN2CCCC(c3ccc(C(=O)O)cc3)C2)c1C (stereo unspecified) and answer again.
-8.56%

Param item: C[S+]([O-])c1nncn1CC(=O)c1cccc(Cl)c1 (stereo unspecified)
-1.02%

Now give it for Cn1ccc(C(=O)NC2CCC23CCN(CC2CCOCC2)CC3)c1 (stereo unspecified) too.
-149%

Please do the same for O=C(CCc1cccc(Cl)c1)NS(=O)(=O)Cc1ccon1 as well.
8.76%

And Cc1cccc2c1cnn2CCC(=O)NCC(=O)N(C)C ?
7.03%

Note, next up: Nc1nc(N2CCCCC2)ncc1C(=O)NCc1ccc(F)c(Cl)c1
-17.2%

Please give the result for CN1CCC(CCNC(=O)N2CCN(Cc3ccon3)CC2)CC1 too.
-6.49%

How about COCC(=O)Nc1cc(Br)cnc1OCC(F)(F)F ?
-5.6%

Param item: CC(=O)Nc1cccc2c1ccn2CC(=O)Nc1n[nH]c(CC(C)C)n1
-0.473%

Cc1cc(NC(=O)CN2CCOC(CN(C)C)C2)n(C)n1 (stereo unspecified) ?
0.894%

What about this compound? O=c1c(Cc2ccccc2)c(O)ccn1CCc1ccccc1
10.3%

Further, for O=S(=O)(N1CCCC1)N1CCN(CC2CCCO2)CC1 (stereo unspecified) ?
-0.185%

Similarly, CC(=O)Nn1c(C)cc(CN2CCCN(Cc3ccncc3)CC2)c1C ?
5.63%

Entry to check: O=C(c1ccoc1)N1CCCCC1c1nc[nH]n1 (stereo unspecified)
-7.03%

Query O=c1[nH]nc(CNc2cncc(Br)c2)[nH]1 next
-1.23%

Same thing, different compound: Cn1cnc2c1CCN(Cc1nc(COc3ccc(F)cc3)no1)C2
-7.22%

Moving on to Cc1cc(C(=O)N2C[C@H](c3ccccc3)[C@@H](N)C2)c2ccc(F)cc2n1
3.96%
